Reference for the values: patent US9416133B2

- Tested System: human recombinant full-length fatty acid synthase (FASN) (Homo sapiens)
- Construct: 40 nM human recombinant full-length fatty acid synthase (produced in-house in SF9 cells)
- Sequence (P49327 whole entry): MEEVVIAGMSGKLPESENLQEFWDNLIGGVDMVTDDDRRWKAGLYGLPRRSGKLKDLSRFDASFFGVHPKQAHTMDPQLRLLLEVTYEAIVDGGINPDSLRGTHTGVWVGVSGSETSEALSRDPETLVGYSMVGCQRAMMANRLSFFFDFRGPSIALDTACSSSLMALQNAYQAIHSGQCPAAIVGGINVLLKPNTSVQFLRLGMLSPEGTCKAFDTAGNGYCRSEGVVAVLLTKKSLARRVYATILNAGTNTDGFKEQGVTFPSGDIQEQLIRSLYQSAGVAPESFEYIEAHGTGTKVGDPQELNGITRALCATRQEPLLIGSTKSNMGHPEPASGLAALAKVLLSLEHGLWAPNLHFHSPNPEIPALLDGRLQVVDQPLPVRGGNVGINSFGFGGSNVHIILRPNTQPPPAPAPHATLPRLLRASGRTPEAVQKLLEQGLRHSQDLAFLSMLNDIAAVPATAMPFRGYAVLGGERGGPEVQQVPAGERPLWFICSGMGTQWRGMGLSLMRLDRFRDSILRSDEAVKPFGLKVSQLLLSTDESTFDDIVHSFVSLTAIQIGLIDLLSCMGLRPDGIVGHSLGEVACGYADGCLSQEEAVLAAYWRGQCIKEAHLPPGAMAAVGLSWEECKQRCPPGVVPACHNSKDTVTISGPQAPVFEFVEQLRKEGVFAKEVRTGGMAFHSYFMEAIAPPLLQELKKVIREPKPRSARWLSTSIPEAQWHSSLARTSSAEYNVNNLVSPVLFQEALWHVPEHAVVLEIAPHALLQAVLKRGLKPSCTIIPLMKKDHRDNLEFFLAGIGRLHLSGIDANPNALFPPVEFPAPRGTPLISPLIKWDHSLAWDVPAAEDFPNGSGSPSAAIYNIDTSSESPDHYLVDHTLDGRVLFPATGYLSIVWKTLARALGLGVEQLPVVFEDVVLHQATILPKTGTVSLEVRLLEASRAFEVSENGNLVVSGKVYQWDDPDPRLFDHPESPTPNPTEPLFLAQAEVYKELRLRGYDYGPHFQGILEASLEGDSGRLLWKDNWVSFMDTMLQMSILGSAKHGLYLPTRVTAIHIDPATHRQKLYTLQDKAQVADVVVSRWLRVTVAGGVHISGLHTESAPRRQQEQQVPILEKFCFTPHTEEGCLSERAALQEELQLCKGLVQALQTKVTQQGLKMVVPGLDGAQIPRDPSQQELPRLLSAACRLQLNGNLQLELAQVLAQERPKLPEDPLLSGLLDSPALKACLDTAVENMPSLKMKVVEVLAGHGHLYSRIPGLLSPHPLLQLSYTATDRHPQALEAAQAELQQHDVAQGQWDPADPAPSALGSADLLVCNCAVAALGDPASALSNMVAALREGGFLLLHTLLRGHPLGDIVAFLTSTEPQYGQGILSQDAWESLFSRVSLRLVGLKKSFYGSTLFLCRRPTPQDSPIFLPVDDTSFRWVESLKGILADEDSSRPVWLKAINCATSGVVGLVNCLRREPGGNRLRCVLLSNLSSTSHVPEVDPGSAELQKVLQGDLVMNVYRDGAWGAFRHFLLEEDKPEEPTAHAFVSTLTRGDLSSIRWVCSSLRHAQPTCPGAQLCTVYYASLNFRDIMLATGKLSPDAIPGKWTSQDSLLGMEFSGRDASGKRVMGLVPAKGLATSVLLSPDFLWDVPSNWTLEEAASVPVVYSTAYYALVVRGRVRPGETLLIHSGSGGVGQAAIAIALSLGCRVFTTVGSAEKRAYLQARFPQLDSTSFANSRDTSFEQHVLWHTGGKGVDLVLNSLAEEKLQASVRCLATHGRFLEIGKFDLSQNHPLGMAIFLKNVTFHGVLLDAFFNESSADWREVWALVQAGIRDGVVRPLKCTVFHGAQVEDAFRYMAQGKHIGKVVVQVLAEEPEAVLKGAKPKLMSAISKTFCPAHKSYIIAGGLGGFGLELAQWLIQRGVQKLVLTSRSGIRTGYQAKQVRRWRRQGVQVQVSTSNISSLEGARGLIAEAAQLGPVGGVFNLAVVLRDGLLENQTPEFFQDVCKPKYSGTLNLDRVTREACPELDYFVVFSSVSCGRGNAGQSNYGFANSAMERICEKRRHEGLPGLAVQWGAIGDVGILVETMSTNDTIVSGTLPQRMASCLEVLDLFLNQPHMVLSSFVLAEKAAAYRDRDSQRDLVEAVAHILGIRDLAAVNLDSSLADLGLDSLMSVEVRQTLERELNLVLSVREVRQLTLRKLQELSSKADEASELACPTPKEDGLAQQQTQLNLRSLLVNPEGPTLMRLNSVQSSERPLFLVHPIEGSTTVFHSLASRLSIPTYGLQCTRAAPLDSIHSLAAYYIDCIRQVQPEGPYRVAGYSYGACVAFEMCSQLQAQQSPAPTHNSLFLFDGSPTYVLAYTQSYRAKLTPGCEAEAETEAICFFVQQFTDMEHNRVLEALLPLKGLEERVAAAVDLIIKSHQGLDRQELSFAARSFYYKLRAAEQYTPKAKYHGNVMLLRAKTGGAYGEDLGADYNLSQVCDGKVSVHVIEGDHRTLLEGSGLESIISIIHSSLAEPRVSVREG
- Procedure Text: Biochemical activity testing of human fatty acid synthase FASN (NADPH fluorescence intensity enzyme assay)
- Assay Setup: inhibition of NADPH conversion
- Description: Biochemical Activity Testing of Human Fatty Acid Synthase FASN Fatty acid synthase FASN is a multifunctional enzyme with seven catalytic activities thereby synthesising long chain fatty acids especially palmitoyl-CoA in the presence of co-factor NADPH starting from the substrates acetyl-CoA and malonyl-CoA. […] After this the fluorescence intensity was measured again in the Envision using the same parameters as described above (second time point measurement). […]
Each item that follows carries a reported IC50.

INPUT: What IC50 value was documented for this molecule, CC(=O)N1CC2CN(C(=O)c3ccc(-c4ccc5cc[nH]c5c4)cc3)CC2C1 (centres unmarked) [Compound A7] ?
OUTPUT: 0.3 to 3 µM

Now examine the next entry.
INPUT: What IC50 value was documented for this molecule, CC(=O)N1CC2CN(C(=O)c3ccc(-c4ccc5cnccc5c4)cc3)CC2C1 (centres unmarked) [Compound A3] ?
OUTPUT: 0.3 to 3 µM
